Biological target: GluN1/GluN2C (Rattus norvegicus, UniProt P35439+Q00961)
Sequence (Q00961 20-1237, other chains not shown): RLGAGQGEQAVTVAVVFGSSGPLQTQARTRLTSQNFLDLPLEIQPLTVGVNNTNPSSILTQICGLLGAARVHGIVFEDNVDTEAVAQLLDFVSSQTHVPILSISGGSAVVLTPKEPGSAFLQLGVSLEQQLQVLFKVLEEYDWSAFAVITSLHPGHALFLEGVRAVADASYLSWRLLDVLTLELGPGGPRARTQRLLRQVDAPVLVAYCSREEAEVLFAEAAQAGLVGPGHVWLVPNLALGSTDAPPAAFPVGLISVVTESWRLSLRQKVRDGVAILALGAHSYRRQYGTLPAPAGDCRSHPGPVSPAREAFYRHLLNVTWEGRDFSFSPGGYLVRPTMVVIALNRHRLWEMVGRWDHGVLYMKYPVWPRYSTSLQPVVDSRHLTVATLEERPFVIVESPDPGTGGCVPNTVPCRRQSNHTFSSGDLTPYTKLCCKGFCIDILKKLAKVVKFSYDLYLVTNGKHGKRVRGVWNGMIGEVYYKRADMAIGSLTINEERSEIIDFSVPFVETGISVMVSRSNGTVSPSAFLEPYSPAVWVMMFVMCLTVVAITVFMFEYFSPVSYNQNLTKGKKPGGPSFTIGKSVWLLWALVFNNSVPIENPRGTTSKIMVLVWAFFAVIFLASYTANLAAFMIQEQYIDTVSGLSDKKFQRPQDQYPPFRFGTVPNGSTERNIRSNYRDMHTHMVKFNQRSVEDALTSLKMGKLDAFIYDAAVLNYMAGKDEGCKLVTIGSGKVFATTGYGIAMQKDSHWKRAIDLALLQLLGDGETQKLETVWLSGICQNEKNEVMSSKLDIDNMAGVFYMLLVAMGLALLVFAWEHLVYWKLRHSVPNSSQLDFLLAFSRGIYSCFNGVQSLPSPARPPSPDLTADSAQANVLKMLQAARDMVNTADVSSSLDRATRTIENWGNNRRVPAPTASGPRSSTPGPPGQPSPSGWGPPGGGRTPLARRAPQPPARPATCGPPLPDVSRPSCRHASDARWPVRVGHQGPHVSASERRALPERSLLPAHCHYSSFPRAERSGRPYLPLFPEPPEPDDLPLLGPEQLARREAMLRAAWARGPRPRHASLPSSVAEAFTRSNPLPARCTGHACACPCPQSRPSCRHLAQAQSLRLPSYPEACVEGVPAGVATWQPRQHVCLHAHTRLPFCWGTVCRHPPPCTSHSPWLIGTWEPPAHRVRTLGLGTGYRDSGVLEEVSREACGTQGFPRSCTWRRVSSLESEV
Assay: Two-electrode voltage-clamp recordings, Xenopus laevis oocytes, GluN1/GluN2C
Assay type: cell-based
Parameters: GluN2B (NM_012574.1), GluN2C (NM_012575.3), and GluN2D (NM_022797.2) were provided by; expressed in transfected cells; host or cells: Xenopus laevis oocytes (cRNA injection)
Details: 30 μM test compound; 100 μM glutamate, 30 μM glycine; mean ± SEM; read-out: I 30 μM / I control GluN2C
measurement-type: remaining activity at 30 µM (%)

Past entries and their recorded results:
N#CCCC(=O)N1N=C(c2c(-c3ccc(Cl)cc3)c3ccccc3[nH]c2=O)CC1c1ccc(Cl)cc1 (centres unmarked) [2e] = 67
CCOC(=O)CC(F)(F)C(=O)N1N=C(c2c(-c3ccc(Cl)cc3)c3ccccc3[nH]c2=O)CC1c1ccc(Cl)cc1 (centres unmarked) [2l] = 93
CC(C)OC(=O)CC(F)(F)C(=O)N1N=C(c2c(-c3ccc(Cl)cc3)c3ccccc3[nH]c2=O)CC1c1ccc(Cl)cc1 (centres unmarked) [2m] = 90
O=C(CC(F)(F)C(=O)N1N=C(c2c(-c3ccc(Cl)cc3)c3ccccc3[nH]c2=O)CC1c1ccc(Cl)cc1)OCc1ccccc1 (centres unmarked) [2p] = 98
O=C(N1N=C(c2c(-c3ccc(Cl)cc3)c3ccccc3[nH]c2=O)CC1c1ccc(Cl)cc1)C(F)(F)F (centres unmarked) [2j] = 100

1. O=C(CC(F)(F)C(=O)N1N=C(c2c(-c3ccc(Cl)cc3)c3ccccc3[nH]c2=O)CC1c1ccc(Cl)cc1)OCC1CC1 (centres unmarked) [2n]
2. O=C(CCc1nnn[nH]1)N1N=C(c2c(-c3ccc(Cl)cc3)c3ccccc3[nH]c2=O)CC1c1ccc(Cl)cc1 (centres unmarked) [2h]
3. N[C@@H](CCC(=O)N1N=C(c2c(-c3ccc(Cl)cc3)c3ccccc3[nH]c2=O)CC1c1ccc(Cl)cc1)C(=O)O (some centres unmarked) [2d]
Please order the records by their reported remaining activity at 30 µM, lowest number first. Hello, could you send the labels back in the order asked? Thank you.
2, 3, 1
(2: 2.3%, 3: 16%, 1: 93%)

* * *

Experiment: Mouse plasma and brain pharmacokinetics, IV administration
Assay type: in vivo
Details: male, C57BL/6, mouse, brain, intravenous, 5 mg/kg, 5 mg/kg IV; 1 h; BLQ assumed to be 0.0; read-out: brain calculated concentration, Mean
measurement-type: concentration at 1 h (ng/g)
# number only, unit ng/g dropped from output

Please report the recorded concentration at 1 h for O=C(O)CC(F)(F)C(=O)N1N=C(c2c(-c3ccc(Cl)cc3)c3ccccc3[nH]c2=O)CC1c1ccc(Cl)cc1 (stereo not shown) .
4.13

* * *

Target: GluN1/GluN2C (Rattus norvegicus, UniProt P35439+Q00961)
Experiment: Two-electrode voltage-clamp recordings, Xenopus laevis oocytes, GluN1/GluN2C
Type: cell-based
Parameters: GluN2B (NM_012574.1), GluN2C (NM_012575.3), and GluN2D (NM_022797.2) were provided by; expressed in transfected cells; host or cells: Xenopus laevis oocytes (cRNA injection)
Details: 100 μM glutamate, 30 μM glycine; read-out: IC50 GluN2C [95% CI]
measurement-type: IC50 (nM)

a. O=C(O)CCCC(=O)N1N=C(c2c(-c3ccc(Cl)cc3)c3ccccc3[nH]c2=O)CC1c1ccc(Cl)cc1 (stereo not drawn) [2b]
b. N[C@@H](CCC(=O)N1N=C(c2c(-c3ccc(Cl)cc3)c3ccccc3[nH]c2=O)CC1c1ccc(Cl)cc1)C(=O)O (stereo partly drawn) [2d]
c. O=C(O)CC(F)(F)C(=O)N1N=C(c2c(-c3ccc(Cl)cc3)c3ccccc3[nH]c2=O)C[C@H]1c1ccc(Cl)cc1 [(S)-(−)-2i]
Which order do the items above take when sorted by IC50 from high to low? Reply format: the labels, ordered as requested.
b, a, c
